- measured-target: Melatonin receptor type 1A (Homo sapiens, UniProt P48039)
- Sequence (P48039 whole entry): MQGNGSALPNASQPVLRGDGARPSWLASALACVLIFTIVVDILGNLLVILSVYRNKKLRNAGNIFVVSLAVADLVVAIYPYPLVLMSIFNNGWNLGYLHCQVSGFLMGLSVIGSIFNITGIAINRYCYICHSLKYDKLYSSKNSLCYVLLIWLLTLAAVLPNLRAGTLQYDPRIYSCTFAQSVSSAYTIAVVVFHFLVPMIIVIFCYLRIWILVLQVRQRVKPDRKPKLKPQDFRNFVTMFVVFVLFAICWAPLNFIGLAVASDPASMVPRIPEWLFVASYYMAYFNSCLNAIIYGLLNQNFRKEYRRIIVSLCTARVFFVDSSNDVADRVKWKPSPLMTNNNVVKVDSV
- experimental-protocol: Displacement of 2-[125I]iodomelatonin from human melatonin MT1 receptor stably expressing in human HEK293 cell membranes under dark condition by radioligand based competition binding assay
- Design: species or system Cell membrane
assay-endpoint: pKi
One number for each entry, as −log10 of the molar value.

Provide one value: measured pKi of "COc1ccc2c(c1)c(CCNC(C)=O)cn2C(=O)OCc1cc(OC)c(OC)cc1[N+](=O)[O-]"
7.29

###

- measured-target: Melatonin receptor type 1B (Homo sapiens, UniProt P49286)
- Sequence (P49286 whole entry): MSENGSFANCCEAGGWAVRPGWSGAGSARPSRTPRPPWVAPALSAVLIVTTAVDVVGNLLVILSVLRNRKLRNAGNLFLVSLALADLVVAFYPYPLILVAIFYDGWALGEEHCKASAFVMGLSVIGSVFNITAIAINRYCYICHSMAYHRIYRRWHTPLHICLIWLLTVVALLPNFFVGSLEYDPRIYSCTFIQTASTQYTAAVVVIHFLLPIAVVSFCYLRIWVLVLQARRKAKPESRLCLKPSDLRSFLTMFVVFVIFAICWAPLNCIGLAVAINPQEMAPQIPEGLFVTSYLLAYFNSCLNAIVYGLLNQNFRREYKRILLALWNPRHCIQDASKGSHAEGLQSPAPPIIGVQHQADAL
- experimental-protocol: Displacement of 2-[125I]iodomelatonin from human melatonin MT2 receptor stably expressing in human HEK293 cell membranes under dark condition by radioligand based competition binding assay
- Design: species or system Cell membrane
assay-endpoint: pKi
Answers are plain numbers, as −log10 of the molar value.

Please indicate pKi recorded for "COc1ccc2c(c1)c(CCNC(C)=O)cn2C(=O)OCc1cc(OC)c(OC)cc1[N+](=O)[O-]"
7.40

These data points were gathered from ChEMBL document CHEMBL5137083.
